# Test system: KB
# assay.comment: Anticancer activity against human KB cells after 72 hrs by sulforhodamine B assay
# Type: functional
assay.metric: GI50

INSERT INTO measurements (structure_notation, assay_metric, endpoint_value) VALUES
  ('COc1ccc2c3c(c4cc(OC)c(OC)cc4c2c1)C[C@@H]1CCN(CC2CC2)CN1C3', 'GI50', '2.1 µM'),
  ('COc1ccc2c3c(c4cc(OC)c(OC)cc4c2c1)C[C@H]1CCN(CCO)CN1C3', 'GI50', '1.59 µM'),
  ('COc1ccc2c3c(c4cc(OC)c(OC)cc4c2c1)C[C@H]1CN(CCO)CCN1C3', 'GI50', '8.62 µM'),
  ('COc1ccc2c3c(c4cc(OC)c(OC)cc4c2c1)C[C@H]1CN(CCc2ccccc2)CN1C3', 'GI50', '10 µM'),
  ('CCCN1C[C@@H]2Cc3c(c4ccc(OC)cc4c4cc(OC)c(OC)cc34)CN2C1', 'GI50', '6.64 µM');
